Molecular target: HIV-1 CMU02 envelope glycoprotein (Env) on pseudovirus (HIV-1)
Assay: cell-based or functional assay
Property: IC50, pseudovirus neutralization; scope: individual binders

Consider the worked cases shown below.
[[record]]
binder = "PGT-126 monoclonal antibody (antibody, V domains shown) VH: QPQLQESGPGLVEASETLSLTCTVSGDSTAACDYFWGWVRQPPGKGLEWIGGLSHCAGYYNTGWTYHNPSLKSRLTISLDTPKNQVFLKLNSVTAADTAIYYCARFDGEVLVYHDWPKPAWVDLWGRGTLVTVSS VL: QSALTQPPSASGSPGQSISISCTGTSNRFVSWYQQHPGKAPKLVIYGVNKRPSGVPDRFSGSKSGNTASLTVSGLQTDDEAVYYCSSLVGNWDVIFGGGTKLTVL"
result = "> 10 µg/mL"

[[record]]
binder = "PGT-130 monoclonal antibody (antibody, V domains shown) VH: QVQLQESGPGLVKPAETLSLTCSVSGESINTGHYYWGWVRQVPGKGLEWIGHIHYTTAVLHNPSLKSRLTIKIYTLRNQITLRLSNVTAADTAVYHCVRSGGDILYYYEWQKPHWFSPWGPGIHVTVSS VL: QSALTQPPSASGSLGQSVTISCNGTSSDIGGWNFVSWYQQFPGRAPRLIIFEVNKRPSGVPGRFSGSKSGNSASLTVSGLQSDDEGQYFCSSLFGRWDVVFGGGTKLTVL"
result = "> 10 µg/mL"


Proceeding to the next binder to report its IC50, pseudovirus neutralization.
Recorded IC50, pseudovirus neutralization for PGT-125 monoclonal antibody (antibody, V domains shown) VH: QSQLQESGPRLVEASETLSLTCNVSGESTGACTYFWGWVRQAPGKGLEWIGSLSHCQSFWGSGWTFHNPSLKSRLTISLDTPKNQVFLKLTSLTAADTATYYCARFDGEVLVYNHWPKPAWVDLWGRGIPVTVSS VL: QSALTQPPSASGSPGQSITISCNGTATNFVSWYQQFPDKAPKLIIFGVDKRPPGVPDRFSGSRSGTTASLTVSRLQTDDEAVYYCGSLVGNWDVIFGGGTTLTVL , please?
> 10 µg/mL
